Target: His-tagged KRAS G12D protein (Homo sapiens, UniProt P01116, G12D)
Sequence (P01116 1-188 isoform P01116-2 G12D): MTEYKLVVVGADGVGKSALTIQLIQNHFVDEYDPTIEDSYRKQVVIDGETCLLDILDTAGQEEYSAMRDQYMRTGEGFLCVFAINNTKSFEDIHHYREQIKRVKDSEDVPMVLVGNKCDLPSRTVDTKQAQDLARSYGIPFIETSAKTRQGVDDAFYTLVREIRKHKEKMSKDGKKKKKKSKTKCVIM
Assay: biochemical
pIC50: −log10 of the molar value.
Would you please tag the item fulfilled when its pIC50 is 8 or above, and not fulfilled when it is below?

{"Molecule": "CCc1c(F)ccc2cc(O)cc(-c3ncc4c(N5CC6CNC(=O)C6C5)nc(OC[C@@]56CCCN5C[C@H](F)C6)nc4c3F)c12 (relative stereo) [Example 61]", "Cat": "fulfilled"}
{"Molecule": "CCc1c(F)ccc2cc(O)cc(-c3ncc4c(N5CCC[C@](C)(CO)C5)nc(OC[C@@]56CCCN5C[C@H](F)C6)nc4c3F)c12 [Example 66]", "Cat": "not fulfilled"}
{"Molecule": "CCc1c(F)ccc2cc(O)cc(-c3ncc4c(N5CCCC(S(C)(=O)=O)C5)nc(OC[C@@]56CCCN5C[C@H](F)C6)nc4c3F)c12 (stereo partly drawn) [Example 84]", "Cat": "fulfilled"}
{"Molecule": "CCc1cccc2cc(O)cc(-c3ncc4c(N5CCC[C@@](C)(O)C5)nc(OC[C@@]56CCCN5C[C@H](F)C6)nc4c3F)c12 [Example 58]", "Cat": "fulfilled"}
{"Molecule": "CCc1c(F)ccc2cc(O)cc(-c3ncc4c(N5C6CCC5C(C)(O)CC6)nc(OC[C@@]56CCCN5C[C@H](F)C6)nc4c3F)c12 (stereo partly drawn) [Example 70]", "Cat": "not fulfilled"}

Kindly consider the entry below.
Request: Confirm if pIC50 reported for the molecule CCc1c(F)ccc2cc(O)cc(-c3ncc4c(N5CCCC(CO)(CCl)C5)nc(OC[C@@]56CCCN5C[C@H](F)C6)nc4c3F)c12 (stereo partly drawn) [Example 22] is 8 or above.
Result: fulfilled

====

Biological target: His-tagged KRAS G12D protein (Homo sapiens, UniProt P01116, G12D)
Assay: biochemical
Mark Fulfilled only for IC50 values smaller than 6 nM; exact matches and larger values are Not fulfilled.

Look over these answered cases.
{"Compound": "CCc1c(F)ccc2cc(O)cc(-c3ncc4c(N5CC6CC(O)C(C6)C5)nc(OC[C@@]56CCCN5C[C@H](F)C6)nc4c3F)c12 (single isomer, unassigned) [Example 26]", "Measurement Target": "His-tagged KRAS G12D protein (Homo sapiens, UniProt P01116, G12D)", "Cat": "Fulfilled"}
{"Compound": "CCc1c(F)ccc2cc(O)cc(-c3ncc4c(N5CC6CC(O)C5C6)nc(OC[C@@]56CCCN5C[C@H](F)C6)nc4c3F)c12 (some centres unmarked) [Example 51]", "Measurement Target": "His-tagged KRAS G12D protein (Homo sapiens, UniProt P01116, G12D)", "Cat": "Not fulfilled"}
{"Compound": "CCc1c(F)ccc2cc(O)cc(-c3ncc4c(N5CCC(S(N)(=O)=O)CC5)nc(OC[C@@]56CCCN5C[C@H](F)C6)nc4c3F)c12 [Example 85]", "Measurement Target": "His-tagged KRAS G12D protein (Homo sapiens, UniProt P01116, G12D)", "Cat": "Not fulfilled"}

Request: Decide: IC50 of CCc1c(F)ccc2cc(O)cc(-c3ncc4c(N5CC(S(N)(=O)=O)C5)nc(OC[C@@]56CCCN5C[C@H](F)C6)nc4c3F)c12 [Example 87] strictly below 6 nM?
Result: Not fulfilled

Request: // query: CCc1c(F)ccc2cc(O)cc(-c3ncc4c(N5CCCC(C(C)(C)O)C5)nc(OC[C@@]56CCCN5C[C@H](F)C6)nc4c3F)c12 (some centres unmarked) [Example 124]
Result: Not fulfilled

Request: // query: CCc1c(F)ccc2cc(O)cc(-c3ncc4c(N5CC6CCC(C5)C6O)nc(OC[C@@]56CCCN5C[C@H](F)C6)nc4c3F)c12 (some centres unmarked) [Example 97]
Result: Not fulfilled

Request: // query: CCc1c(F)ccc2cc(O)cc(-c3ncc4c(N5CC6CC(C#N)C(C6)C5)nc(OC[C@@]56CCCN5C[C@H](F)C6)nc4c3F)c12 (single isomer, unassigned) [Example 146]
Result: Fulfilled

Request: // query: CCc1c(F)ccc2cc(O)cc(-c3ncc4c(N5C[C@@H](O)C[C@H](F)C5)nc(OC[C@@]56CCCN5C[C@H](F)C6)nc4c3F)c12 (racemic) [Example 116]
Result: Fulfilled

Request: // query: CCc1cccc2cc(O)cc(-c3ncc4c(N5CCC[C@@H](O)C5)nc(OC[C@@]56CCCN5C[C@H](F)C6)nc4c3F)c12 [Example 13]
Result: Fulfilled

Request: // query: CCc1c(F)ccc2cc(O)cc(-c3ncc4c(N5CCCC(C)(O)CC5)nc(OC[C@@]56CCCN5C[C@H](F)C6)nc4c3F)c12 (some centres unmarked) [Example 142]
Result: Not fulfilled

Request: // query: C#Cc1cccc2cc(O)cc(-c3ncc4c(N5CC6CC(O)C(C6)C5)nc(OC[C@@]56CCCN5C[C@H](F)C6)nc4c3F)c12 (single isomer, unassigned) [Example 31]
Result: Fulfilled

Request: // query: CCc1c(F)ccc2cc(O)cc(-c3ncc4c(N5CCC(=O)C(F)(F)C5)nc(OC[C@@]56CCCN5C[C@H](F)C6)nc4c3F)c12 [Example 152]
Result: Fulfilled

Request: // query: CCc1c(F)ccc2cc(O)cc(-c3ncc4c(N5CC6CCC(C6)C5)nc(OC[C@@]56CCCN5C[C@H](F)C6)nc4c3F)c12 [Example 105]
Result: Not fulfilled

Request: // query: CCc1c(F)ccc2cc(O)cc(-c3ncc4c(N5CC6CCC(C5)C(C#N)C6)nc(OC[C@@]56CCCN5C[C@H](F)C6)nc4c3F)c12 (some centres unmarked) [Example 147]
Result: Not fulfilled

Request: // query: C#Cc1c(F)ccc2cccc(-c3ncc4c(N5CCC[C@@](C)(O)C5)nc(OC[C@@]56CCCN5C[C@H](F)C6)nc4c3F)c12 [Example 50]
Result: Not fulfilled

Request: // query: CCc1c(F)ccc2cc(O)cc(-c3ncc4c(N5C[C@H](C)C[C@@H](O)C5)nc(OC[C@@]56CCCN5C[C@H](F)C6)nc4c3F)c12 (relative stereo) [Example 160]
Result: Fulfilled

Request: // query: CCc1c(F)ccc2cc(O)cc(-c3ncc4c(N5CCCC(O)CC5)nc(OC[C@@]56CCCN5C[C@H](F)C6)nc4c3F)c12 (some centres unmarked) [Example 141]
Result: Fulfilled

Request: // query: CCc1c(F)ccc2cc(O)cc(-c3ncc4c(N5CCCC(C)(C(N)=O)C5)nc(OC[C@@]56CCCN5C[C@H](F)C6)nc4c3F)c12 (some centres unmarked) [Example 68]
Result: Not fulfilled

Request: // query: CCc1c(F)ccc2cc(O)cc(-c3ncc4c(N5C6CCC(O)C5CC6)nc(OC[C@@]56CCCN5C[C@H](F)C6)nc4c3F)c12 (some centres unmarked) [Example 34, 2,2,2-trifluoroacetate]
Result: Not fulfilled

====

Test system: Phosphorylation of ERK1/2 in AsPC-1 cells
Assay: Phospho-ERK1/2 MSD Assay
Format: cell-based
Details: read-out: 2 h p-ERK (AsPC-1 cells), IC50; AsPC-1 cells, 2 h compound treatment
Mark Condition met only for IC50 values smaller than 40 nM; exact matches and larger values are Condition not met.

{"Molecule": "C#Cc1c(F)ccc2cc(O)cc(-c3ncc4c(N5CC6CC(O)C(C6)C5)nc(OC[C@@]56CCCN5C[C@H](F)C6)nc4c3F)c12 (single isomer, unassigned) [Example 28]", "Measurement Target": "Phosphorylation of ERK1/2 in AsPC-1 cells", "Cat": "Condition met"}
{"Molecule": "CCc1c(F)ccc2cc(O)cc(-c3ncc4c(N5CCCC(C#N)CC5)nc(OC[C@@]56CCCN5C[C@H](F)C6)nc4c3F)c12 (single isomer, unassigned) [Example 55]", "Measurement Target": "Phosphorylation of ERK1/2 in AsPC-1 cells", "Cat": "Condition not met"}
{"Molecule": "CCc1c(F)ccc2cc(O)cc(-c3ncc4c(N5CC6CC(O)C(C6)C5)nc(OC[C@@]56CCCN5C[C@H](F)C6)nc4c3F)c12 (single isomer, unassigned) [Example 24]", "Measurement Target": "Phosphorylation of ERK1/2 in AsPC-1 cells", "Cat": "Condition met"}
{"Molecule": "CCc1c(F)ccc2cc(O)cc(-c3ncc4c(N5CCCC(C#N)CC5)nc(OC[C@@]56CCCN5C[C@H](F)C6)nc4c3F)c12 (single isomer, unassigned) [Example 54]", "Measurement Target": "Phosphorylation of ERK1/2 in AsPC-1 cells", "Cat": "Condition not met"}

Request: Decide: IC50 of CCc1c(F)ccc2cc(O)cc(-c3ncc4c(N5CC(C)CC(C(N)=O)C5)nc(OC[C@@]56CCCN5C[C@H](F)C6)nc4c3F)c12 (single isomer, unassigned) [Example 164] strictly below 40 nM?
Result: Condition not met
